- Tested on: CAKI-1
- Test details: NCI tumour cell line growth inhibition, 48 h
Calls of active or inactive are those of the source. No stated cut-off is given here; in the data, active = GI50 up to about 1.1 µM and inactive = higher.
// values below are reported GI50

- Compound: "C=CCN1C(=O)C[C@H](Cc2ccccc2)NC(=O)C[C@H](Cc2ccccc2)N(CC=C)C(=O)C[C@H](Cc2ccccc2)NC(=O)C[C@@H]1Cc1ccccc1"
  GI50: "5.15 µM (inactive)"
- Compound: "COc1nc(Cl)nc(N[C@H](C)c2c3ccccc3cc3ccccc23)n1"
  GI50: "11.6 µM (inactive)"
- Compound: "CC(C)(C)N/N=C(\\Cc1occc(=O)c1O)C(=O)Nc1ccc([N+](=O)[O-])cc1[N+](=O)[O-]"
  GI50: "> 100 µM (inactive)"

Next compound, GI50 to be filled in.
Value of GI50 reported for the compound O=C1CSC(c2ccccc2)N1c1ccc(-n2c(-c3ccccc3)nc3ccccc3c2=O)cc1 (centres undefined) is > 100 µM (inactive)

###

- Test system: A549
- Test details: NCI tumour cell line growth inhibition, 48 h
Active and inactive are the calls of the source. Rule as the data show it: active = GI50 up to about 1.1 µM and inactive = higher.
# valid calls are active, inactive; nothing else

These solved cases illustrate the format of a correct answer.
- Molecule: "CCCCC1(O)CC2CC1C(C)C2(C)C (stereo unspecified)"
  Target or system: "A549"
  Classification: "inactive"
- Molecule: "Cc1ccccc1NC(=O)C(=O)C(c1cnc2ccc([N+](=O)[O-])cc2n1)[N+](=O)[O-] (stereo unspecified)"
  Target or system: "A549"
  Classification: "inactive"
- Molecule: "O=C(Nc1cccc(NC(=O)c2cc(=O)c3ccccc3o2)n1)c1cc(=O)c2ccccc2o1"
  Target or system: "A549"
  Classification: "inactive"

Answer briefly: the call reported for c1ccc(-c2cccc(-c3ccccn3)n2)nc1 in this assay.
active

Could you please tell me the result logged for CCOc1cc(/C=N/c2nc3cc4sc(/N=C/c5ccc(O)c(OCC)c5)nc4cc3s2)ccc1O in this assay?
inactive

Could you please tell me the result logged for c1ccc(C2=Nc3nc4ccccc4n3C(c3ccccc3)C2)cc1 (stereo unspecified) in this assay?
inactive

Kindly provide the recorded test outcome for the following molecule: O=C(CCc1nnc2s/c(=C\c3ccc([N+](=O)[O-])cc3)c(=O)n12)Nc1ccc(Cl)c(Cl)c1
inactive

Which result was noted for this molecule in the test: Nc1ccc(-c2nc3ccc(F)cc3s2)cc1
inactive

###

- System: 786-0
- Test details: NCI tumour cell line growth inhibition, 48 h
Calls of active or inactive are those of the source. No stated cut-off is given here; in the data, active = GI50 up to about 1.1 µM and inactive = higher.
Observable: GI50

Some entries whose results are on file:
- Compound: "CCOC(=O)c1cc(C2(O)CCN(CC(C)CC)C2=O)c(-c2cc(C)no2)[nH]1 (stereo unspecified)"
  GI50: "> 100 µM (inactive)"
- Compound: "CCOC(=O)c1c(N2CCCC2)ncn(C)c1=S"
  GI50: "> 100 µM (inactive)"

For this compound ( CC(=O)OCC1OC(n2cnc3c(I)nc(I)nc32)C(OC(C)=O)C1OC(C)=O (stereo unspecified) ), measured GI50 is 14.3 µM (inactive)

For reference, reported GI50 for CCN1CCN(c2nc3ccccc3c3c2CCOc2ccccc2-3)CC1 stands at 22.3 µM (inactive)

COC(=O)c1cc(=O)n(-c2ccc3nn(C)nc3c2)cc1C(=O)OC has a reported GI50 of > 100 µM (inactive)

According to the records, this compound O=c1oc2c/c(=C\c3ccccc3)c(=O)c3cccc1c3-2 displays GI50 of 22.8 µM (inactive)
